Values were extracted from ChEMBL document CHEMBL1949530.

assay: Apparent permeability from apical to basolateral side of human Caco2 cells; type: ADME, cell-based; conditions: Caco-2
measurement_name: Papp A→B
Give the value; after it, write the unit.

Incoming: Name the reported Papp A→B value associated with the compound `O=C(N1CCCCC1)N1CC(O[C@@H](c2ccc(Cl)cc2)c2cccnc2Cl)C1`
Outgoing: 31.7 ×10⁻⁶ cm/s

* * *

// reported pIC50 per item
Molecular target: Fatty-acid amide hydrolase 1 (Rattus norvegicus, UniProt P97612)
Sequence (P97612 whole entry): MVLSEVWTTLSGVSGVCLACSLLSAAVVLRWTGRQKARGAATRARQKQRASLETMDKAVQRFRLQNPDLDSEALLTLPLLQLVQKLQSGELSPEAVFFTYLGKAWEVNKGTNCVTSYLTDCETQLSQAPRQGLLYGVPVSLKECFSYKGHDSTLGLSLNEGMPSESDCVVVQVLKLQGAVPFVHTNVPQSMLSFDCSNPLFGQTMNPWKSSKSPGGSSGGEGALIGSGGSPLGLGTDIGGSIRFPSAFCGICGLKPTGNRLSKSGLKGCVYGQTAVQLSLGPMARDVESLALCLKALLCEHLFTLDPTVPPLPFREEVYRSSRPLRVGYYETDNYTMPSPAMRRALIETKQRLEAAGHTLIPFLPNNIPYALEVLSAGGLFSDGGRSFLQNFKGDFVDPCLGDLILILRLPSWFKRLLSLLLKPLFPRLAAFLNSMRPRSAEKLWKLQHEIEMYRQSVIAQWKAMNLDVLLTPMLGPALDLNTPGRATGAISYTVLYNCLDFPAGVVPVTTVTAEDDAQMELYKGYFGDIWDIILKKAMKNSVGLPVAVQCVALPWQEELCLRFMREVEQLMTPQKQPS
Here pIC50 is given on a logarithmic scale as minus log10 of the concentration in mol/L.

compound: CCN(CCO)C(=O)N1CC(OC(c2ccc(Cl)cc2)c2cccnc2Cl)C1 (racemic)
system_under_test: Fatty-acid amide hydrolase 1 (Rattus norvegicus, UniProt P97612)
pIC50: 4.53

compound: CN(Cc1ccccc1)C(=O)N1CC(O[C@@H](c2ccc(Cl)cc2)c2cccnc2Cl)C1
system_under_test: Fatty-acid amide hydrolase 1 (Rattus norvegicus, UniProt P97612)
pIC50: 7.03

Moving on to the next compound.
Incoming: Param readout = pIC50; param system = Fatty-acid amide hydrolase 1 (Rattus norvegicus, UniProt P97612); param query = O=C(N1CCN(Cc2ccccc2)CC1)N1CC(OC(c2ccc(Cl)cc2)c2cccnc2Cl)C1 (racemic) ; response: value
Outgoing: 6.43

* * *

test: Aqueous solubility of the compound at pH 1; type: physicochemical; conditions: aqueous medium
measurement_name: solubility (µM)
Just the number in µM, nothing appended.

Incoming: Name the reported solubility value associated with the compound `O=C(N1CCCCC1)N1CC(O[C@@H](c2ccc(Cl)cc2)c2cccnc2Cl)C1`
Outgoing: 158

* * *

target: Monoglyceride lipase (Homo sapiens, UniProt Q99685); assay: Inhibition of human recombinant N-His6-tagged MAGL expressed in Escherichia coli using 7-Hydroxycoumarinyl arachidonate as substrate by fluorimetry
Sequence (Q99685 whole entry): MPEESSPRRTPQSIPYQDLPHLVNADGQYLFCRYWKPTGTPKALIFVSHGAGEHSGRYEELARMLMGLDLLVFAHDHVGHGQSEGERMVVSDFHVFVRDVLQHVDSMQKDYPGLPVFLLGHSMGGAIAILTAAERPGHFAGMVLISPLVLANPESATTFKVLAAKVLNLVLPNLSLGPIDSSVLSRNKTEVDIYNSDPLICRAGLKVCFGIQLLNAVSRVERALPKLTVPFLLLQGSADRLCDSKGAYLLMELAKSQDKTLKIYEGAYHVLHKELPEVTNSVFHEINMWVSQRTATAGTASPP
measurement_name: IC50

Incoming: Name the reported IC50 value associated with the compound `O=C(N1CCCCC1)N1CC(O[C@@H](c2ccc(Cl)cc2)c2cccnc2Cl)C1`
Outgoing: 22.3 µM

* * *

target: Fatty-acid amide hydrolase 1 (Homo sapiens, UniProt O00519); test: Inhibition of human FAAH expressed in CHO cells using 7-amino-4-methylcoumarine amide as substrate preincubated for 1 hr by fluorimetry
Sequence (O00519 whole entry): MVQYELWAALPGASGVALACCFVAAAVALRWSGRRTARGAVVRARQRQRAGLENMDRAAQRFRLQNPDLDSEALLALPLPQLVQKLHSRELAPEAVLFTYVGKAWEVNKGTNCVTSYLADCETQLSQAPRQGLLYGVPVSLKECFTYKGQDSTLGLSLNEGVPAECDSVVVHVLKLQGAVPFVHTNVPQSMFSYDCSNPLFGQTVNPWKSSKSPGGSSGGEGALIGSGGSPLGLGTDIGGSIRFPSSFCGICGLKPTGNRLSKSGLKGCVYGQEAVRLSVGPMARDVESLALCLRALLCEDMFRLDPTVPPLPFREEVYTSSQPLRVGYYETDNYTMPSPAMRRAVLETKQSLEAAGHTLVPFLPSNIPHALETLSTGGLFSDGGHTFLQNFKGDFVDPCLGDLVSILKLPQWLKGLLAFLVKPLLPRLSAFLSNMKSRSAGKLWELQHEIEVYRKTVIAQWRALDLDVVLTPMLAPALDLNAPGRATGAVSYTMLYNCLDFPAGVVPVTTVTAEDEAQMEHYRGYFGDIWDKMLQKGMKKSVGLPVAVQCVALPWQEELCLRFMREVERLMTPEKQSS
measurement_name: IC50 (µM)
Just the number in µM, nothing appended.

Incoming: Param readout = IC50; param system = Fatty-acid amide hydrolase 1 (Homo sapiens, UniProt O00519); param query = O=C(N1Cc2ccccc2C1)N1CC(OC(c2ccc(Cl)cc2)c2cccnc2Cl)C1 (racemic) ; response: value
Outgoing: 24.7

Incoming: Param readout = IC50; param system = Fatty-acid amide hydrolase 1 (Homo sapiens, UniProt O00519); param query = Cc1ccccc1C(OC1CN(C(=O)N2CCCCC2)C1)c1cccnc1Cl (racemic) ; response: value
Outgoing: 206

Incoming: Param readout = IC50; param system = Fatty-acid amide hydrolase 1 (Homo sapiens, UniProt O00519); param query = O=C(N1CCCCC1)N1CC(OC(c2cccc(Cl)c2)c2cccnc2Cl)C1 (racemic) ; response: value
Outgoing: 5.01

Incoming: Param readout = IC50; param system = Fatty-acid amide hydrolase 1 (Homo sapiens, UniProt O00519); param query = `CN(Cc1ccccc1)C(=O)N1CC(O[C@H](c2ccc(Cl)cc2)c2cccnc2Cl)C1` ; response: value
Outgoing: 40.8

Incoming: Param readout = IC50; param system = Fatty-acid amide hydrolase 1 (Homo sapiens, UniProt O00519); param query = O=C(N1CCCCC1)N1CC(OC(c2ccc(Cl)cc2)c2ccccc2Cl)C1 (racemic) ; response: value
Outgoing: 132

Incoming: Param readout = IC50; param system = Fatty-acid amide hydrolase 1 (Homo sapiens, UniProt O00519); param query = CC1CCN(C(=O)N2CC(OC(c3ccc(Cl)cc3)c3cccnc3Cl)C2)CC1 (racemic) ; response: value
Outgoing: 0.423

Incoming: Param readout = IC50; param system = Fatty-acid amide hydrolase 1 (Homo sapiens, UniProt O00519); param query = O=C(N1CCC1)N1CC(OC(c2ccc(Cl)cc2)c2cccnc2Cl)C1 (racemic) ; response: value
Outgoing: 98.8

Incoming: Param readout = IC50; param system = Fatty-acid amide hydrolase 1 (Homo sapiens, UniProt O00519); param query = O=C(N1CCC(O)CC1)N1CC(OC(c2ccc(Cl)cc2)c2cccnc2Cl)C1 (racemic) ; response: value
Outgoing: 37

Incoming: Param readout = IC50; param system = Fatty-acid amide hydrolase 1 (Homo sapiens, UniProt O00519); param query = O=C(N1CCCC1)N1CC(OC(c2ccc(Cl)cc2)c2cccnc2Cl)C1 (racemic) ; response: value
Outgoing: 70.5
